The reported measurements were obtained from patent US20110224297A1.

- testDetails: Pharmacokinetics following intravenous and oral administration to rats
- Format: in vivo
- details: rat, plasma, iv; male rats, 0.8 mg/kg i.v. infusion; read-out: mean CL (converted)
quantityName: clearance (mL/min/kg)
Give just the numeric value; mL/min/kg need not be written.

Reported clearance for CC(=O)O[C@@]12C[C@@H](C)[C@@]3(O)[C@@H](C=C(CO)C[C@]4(O)C(=O)C(C)=C[C@@H]34)[C@@H]1C2(C)C [prostratin, 12-deoxyphorbol 13-acetate] : what is it?
34.2
